Data origin, for the record: ChEMBL document CHEMBL4507326

study_target: Ephrin type-B receptor 3 (Homo sapiens)
Sequence (P54753 whole entry): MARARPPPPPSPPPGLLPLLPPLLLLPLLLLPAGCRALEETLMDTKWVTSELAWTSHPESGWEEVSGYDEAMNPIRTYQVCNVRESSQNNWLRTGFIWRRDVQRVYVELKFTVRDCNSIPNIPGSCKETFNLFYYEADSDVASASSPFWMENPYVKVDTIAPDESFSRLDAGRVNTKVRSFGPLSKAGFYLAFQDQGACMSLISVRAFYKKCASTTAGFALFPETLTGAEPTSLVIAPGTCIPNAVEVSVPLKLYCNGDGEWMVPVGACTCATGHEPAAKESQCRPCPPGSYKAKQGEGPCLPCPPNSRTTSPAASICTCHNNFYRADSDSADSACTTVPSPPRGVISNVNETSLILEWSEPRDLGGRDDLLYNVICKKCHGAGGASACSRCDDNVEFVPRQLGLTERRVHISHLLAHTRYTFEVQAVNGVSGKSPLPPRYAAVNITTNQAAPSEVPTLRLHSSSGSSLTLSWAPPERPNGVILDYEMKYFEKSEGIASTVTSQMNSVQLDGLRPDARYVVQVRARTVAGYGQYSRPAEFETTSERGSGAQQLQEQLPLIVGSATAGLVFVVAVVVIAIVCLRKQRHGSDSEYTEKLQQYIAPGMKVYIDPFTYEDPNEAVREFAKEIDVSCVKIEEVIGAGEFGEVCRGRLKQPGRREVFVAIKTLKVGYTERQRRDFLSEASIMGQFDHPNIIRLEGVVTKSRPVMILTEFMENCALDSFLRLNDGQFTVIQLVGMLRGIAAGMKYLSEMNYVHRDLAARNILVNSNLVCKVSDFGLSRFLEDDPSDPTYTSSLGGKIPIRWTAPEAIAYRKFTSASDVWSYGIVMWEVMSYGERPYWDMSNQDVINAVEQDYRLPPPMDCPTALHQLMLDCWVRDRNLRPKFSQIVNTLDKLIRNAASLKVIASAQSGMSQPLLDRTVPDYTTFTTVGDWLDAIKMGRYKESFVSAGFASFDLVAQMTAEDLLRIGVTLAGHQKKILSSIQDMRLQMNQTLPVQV
experimental_endpoint: IC50 (nM)
Field format: number, assumed nM, no unit text.

With Ephrin type-B receptor 3 (Homo sapiens) as the test system, CN1C(=O)[C@@H](N2CCc3c(nn(Cc4ccccc4)c3Br)C2=O)COc2ccccc21 showed IC50 of 1000
